Molecular target: Rap guanine nucleotide exchange factor 3 (Homo sapiens) (UniProt O95398)
Assay: Counterscreen qHTS for agonist of cAMP-regulated guanine nucleotide exchange factor 3 (EPAC1) (AID 1645889); further: % of control where 0% means no effect; nearly all actives have a fitted effect of over 40% in size
Details: EPAC1 Rap1B-BODIPY-GDP exchange, fluorescence; series mostly up to 154 µM
Results filed as inconclusive are left out. Calls of active or inactive are those of the source. The call rests on the fitted dose curve; in most records, active means well fitted activation curve with a large enough effect; inconclusive means small, poorly fitted or top-dose-only effect, or another doubt; inactive means no such curve, though single readings can be large or run the other way.
reported_endpoint: activation

Consider the worked cases shown below.
In [3]: df
Out[3]:
                                   molecule                             target_entity                 recorded_value
0              Cc1c(Cl)cccc1NC(=O)Nc1cccnc1  Rap guanine nucleotide exchange factor 3 (Homo sapiens) (UniProt O95398)                       inactive
1  Cc1ccc(C)c(S(=O)(=O)N2CCN(C(=O)/C=C/c3ccco3)CC2)c1  Rap guanine nucleotide exchange factor 3 (Homo sapiens) (UniProt O95398)                       inactive
2  CCCCN(C=O)c1c(CC)nc2c(OCc3ccc(C(F)(F)F)cc3)cccn12  Rap guanine nucleotide exchange factor 3 (Homo sapiens) (UniProt O95398)                       inactive
3   O=C(Cn1ncc(Cl)c(Cl)c1=O)NC(=O)NC1CCCCC1  Rap guanine nucleotide exchange factor 3 (Homo sapiens) (UniProt O95398)  9.51% [at 30.8 µM] (inactive)
4  Cc1noc(C)c1COc1ccccc1C(=O)NCCc1ccc(Cl)cc1  Rap guanine nucleotide exchange factor 3 (Homo sapiens) (UniProt O95398)                       inactive
5  CCOC(=O)C1=CCN(S(=O)(=O)c2ccc(C)cc2)C1c1cccc(Cl)c1 (centres undefined)  Rap guanine nucleotide exchange factor 3 (Homo sapiens) (UniProt O95398)                       inactive
6  CCOc1ccc(-n2c(C)nc3cc(C(=O)NCc4ccc(C)cc4)ccc32)cc1  Rap guanine nucleotide exchange factor 3 (Homo sapiens) (UniProt O95398)                       inactive
7     COC(=O)c1c(SC)nc2ccccc2c1OCc1ccccc1Cl  Rap guanine nucleotide exchange factor 3 (Homo sapiens) (UniProt O95398)                       inactive
8  Cc1ccc2c(CC(=O)OCc3cc(=O)n4c(n3)sc3ccccc34)coc2c1  Rap guanine nucleotide exchange factor 3 (Homo sapiens) (UniProt O95398)                       inactive
9  O=C(NCCc1c[nH]c2ccccc12)C(=O)Nc1cc2c3c(c1)CC(=O)N3CCC2  Rap guanine nucleotide exchange factor 3 (Homo sapiens) (UniProt O95398)                       inactive

Look up activation: "COc1ccccc1N(C)S(=O)(=O)c1ccc(C(=O)NC2CCCCC2)cc1"
inactive

Cool, now "COC(=O)c1ccc2nc(C3CCCCC3)c(Cc3ccccc3C(F)(F)F)n2c1"
inactive

Now consider "CCN1CCN(S(=O)(=O)c2ccc(Cl)c(C(=O)N(C)Cc3cccc(Cl)c3Cl)c2)CC1" .
inactive

Next molecule up: CCCCC(CC)COC1(c2ccccc2)OC(=O)c2ccccc21 (centres undefined)
inactive

Also, "Cc1cccc(C)c1OCC(=O)Nc1ccccc1N1CCCCC1" please.
inactive

Repeat for the following molecule: "Clc1ccc(Cn2c(/C=C/c3ccco3)nc3ccccc32)cc1"
inactive

Again, but for "Cc1c([N+](=O)[O-])cnc(Sc2ccccc2)c1[N+](=O)[O-]"
inactive
